# Assay comment: melting temperature; fluorescence melt of hairpins on a sequencing array, two-state fit, raised by 9.35 °C to match UV melts
# Conditions: sodium 0.088 M
Measured attribute: Tm (°C)
Enter your answer as a number in °C; do not include the unit.

The following sequences have reported results that may help.
GATCTCCAATGAGATC ((((((....)))))) : 51.3
GTCAGGGGAAACTCTGAC (((((.(....).))))) : 48.9

Would you mind telling me what Tm value was observed for GTGCGCGAAAGCGTTCAC ((((((....)))..))) ?
39.9

---

# Assay comment: melting temperature; fluorescence melt of hairpins on a sequencing array, two-state fit, raised by 9.35 °C to match UV melts
# Conditions: sodium 0.088 M
Label key: yes means Tm under 50 °C; no means Tm of 50 °C or more.

Consider the sequence GCTCTGCGAAAGCGGGGC ((.(.((....)).).)) . Is its Tm strictly less than 50 °C?
no

Is 50 °C strictly greater than the sequence's reported Tm? sequence: GCTGGCGAAAGCCCGAGC ((((((....)))..)))
yes

In plain terms, does GAGCGCGCGAAAGCGCTC (((..(((....)))))) come in under 50 °C for Tm?
no

Field: below-cutoff. Rule: recorded Tm strictly less than 50 °C. Subject: GTGTAGGGAAACCTACAC (((((((....)))))))
no

Confirm or reject: Tm of GCATGGGGAAACCCGTGC (((.(((....))).))) lies strictly below 50 °C
no

Is 50 °C strictly greater than the sequence's reported Tm? sequence: GGTCAGGGAAACCTGGTC (..((((....))))..)
yes

Say whether its Tm is strictly beneath 50 °C. Entry: GCCGCGGGAAACCACGGC ((((.((....)).))))
no

Here's an entry: GTATCTCGAAAGAGTTAC (((.(((....))).))) . Is its Tm below 50 °C?
yes

Does the reported Tm of the following sequence sit strictly below 50 °C? GATGACCCGAAAGGGATC (((..(((....))))))
yes

API: query returns whether the sequence falls strictly under 50 °C in Tm. Query: GCAGGCGAAAGCCGCTGC ((((((....)))..)))
no

Take the sequence GTACAGTCGAAAGACTAC (((..(((....)))))) and say whether its Tm is less than 50 °C.
yes

# strict comparison: is reported Tm < 50 °C? input = GATCGCGAAAGCGGCATC ((((((....)))..)))
yes

Does the reported Tm of the following sequence sit strictly below 50 °C? GAGCCCGAAAGGGGACTC ((((((....)))..)))
yes

# check: Tm < 50 °C for GCTGTTTCGAAAGAAAGC (((..(((....))))))
yes

Determine if GGTTCCCGAAAGGGCACC (((.(((....))).))) shows Tm strictly lower than 50 °C.
no

Bench note: check whether GCCTTGGCGAAAGCCGGC (((..(((....)))))) shows Tm below 50 °C
no

Where do the numbers come from? From the array DNA melting data of Ke et al. (doi:10.1101/2024.01.08.574731).
